Values compiled from patent US20110124661A1.

# targetDesc: recombinant human mGluR2 (Homo sapiens, UniProt Q14416)
# Sequence (Q14416 19-872): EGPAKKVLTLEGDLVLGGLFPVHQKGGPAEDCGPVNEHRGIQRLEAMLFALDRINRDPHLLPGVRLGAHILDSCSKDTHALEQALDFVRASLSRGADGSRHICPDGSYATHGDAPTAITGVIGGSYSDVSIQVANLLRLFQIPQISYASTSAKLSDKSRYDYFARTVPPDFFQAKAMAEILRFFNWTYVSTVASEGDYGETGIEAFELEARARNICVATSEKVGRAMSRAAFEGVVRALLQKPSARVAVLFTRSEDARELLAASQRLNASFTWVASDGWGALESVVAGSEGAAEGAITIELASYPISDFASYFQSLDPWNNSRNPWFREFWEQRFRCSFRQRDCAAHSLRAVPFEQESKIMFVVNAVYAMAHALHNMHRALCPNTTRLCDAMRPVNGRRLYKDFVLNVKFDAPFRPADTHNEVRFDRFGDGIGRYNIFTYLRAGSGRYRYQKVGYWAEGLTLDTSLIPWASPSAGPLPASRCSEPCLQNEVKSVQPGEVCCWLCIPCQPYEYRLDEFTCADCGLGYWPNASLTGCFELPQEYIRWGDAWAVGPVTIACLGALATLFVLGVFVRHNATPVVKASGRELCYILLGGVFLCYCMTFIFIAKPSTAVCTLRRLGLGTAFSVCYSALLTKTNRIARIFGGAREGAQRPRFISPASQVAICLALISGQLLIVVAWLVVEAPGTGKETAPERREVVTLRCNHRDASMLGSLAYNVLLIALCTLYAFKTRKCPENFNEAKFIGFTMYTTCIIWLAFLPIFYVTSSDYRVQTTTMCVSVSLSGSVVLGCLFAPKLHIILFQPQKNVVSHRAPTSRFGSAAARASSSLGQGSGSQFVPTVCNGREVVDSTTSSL
# method: FLIPR Ca2+ mobilization assay, potentiation of glutamate response
# studyConditions: potentiation after EC20 glutamate (900 nM); CHO dhfr- cells expressing human mGluR2 and Gα16; read-out: Representative FLIPR EC50 Values
# Method: Inhibition constants are determined as follows. The compounds of the present invention may be tested in a fluorescence laser imaging plate reader (FLIPR) based assay. […] CHO dhfr-cells stably expressing recombinant human mGluR2 and Gα16 loaded with Fluo-4 AM (Invitrogen, Carlsbad Calif.) are treated with dose responses of compounds and the Ca^2+ response is monitored on a FLIPR384 (Molecular Devices, Sunnydale Calif.) for agonist activity. […]
pEC50: −log10 of the molar value.
Label rule, in plain words: pEC50 of 7 and up is Condition met, under 7 is Condition not met.

- molecule: "CC(C)(C)c1ccc(OCC2Cn3c(nc4cccnc43)O2)cc1 (racemic)"
  className: "Condition not met"
- molecule: "FC(F)(F)c1ccc(OC[C@@H]2Cn3c(nc4ccccc43)O2)cn1"
  className: "Condition not met"
- molecule: "CC(C)(C)c1cc(OC[C@@H]2Cn3c(nc4cc(C#N)ccc43)O2)ccn1"
  className: "Condition not met"
- molecule: "CC(C)(C)c1ccc(OC[C@@H]2Cn3c(nc4cc(C#N)ccc43)O2)cn1"
  className: "Condition met"
- molecule: "CC(C)(C)c1ccc(OC[C@@H]2Cn3c(nc4cc(F)c(F)cc43)O2)cn1"
  className: "Condition met"
